biological target: PI3K (Homo sapiens, UniProt P42336); test: Fluorescence polarization assay for PI3K; assay type: biochemical; conditions: PI3Kα; read-out: PI3Kα IC50
Sequence (P42336 whole entry): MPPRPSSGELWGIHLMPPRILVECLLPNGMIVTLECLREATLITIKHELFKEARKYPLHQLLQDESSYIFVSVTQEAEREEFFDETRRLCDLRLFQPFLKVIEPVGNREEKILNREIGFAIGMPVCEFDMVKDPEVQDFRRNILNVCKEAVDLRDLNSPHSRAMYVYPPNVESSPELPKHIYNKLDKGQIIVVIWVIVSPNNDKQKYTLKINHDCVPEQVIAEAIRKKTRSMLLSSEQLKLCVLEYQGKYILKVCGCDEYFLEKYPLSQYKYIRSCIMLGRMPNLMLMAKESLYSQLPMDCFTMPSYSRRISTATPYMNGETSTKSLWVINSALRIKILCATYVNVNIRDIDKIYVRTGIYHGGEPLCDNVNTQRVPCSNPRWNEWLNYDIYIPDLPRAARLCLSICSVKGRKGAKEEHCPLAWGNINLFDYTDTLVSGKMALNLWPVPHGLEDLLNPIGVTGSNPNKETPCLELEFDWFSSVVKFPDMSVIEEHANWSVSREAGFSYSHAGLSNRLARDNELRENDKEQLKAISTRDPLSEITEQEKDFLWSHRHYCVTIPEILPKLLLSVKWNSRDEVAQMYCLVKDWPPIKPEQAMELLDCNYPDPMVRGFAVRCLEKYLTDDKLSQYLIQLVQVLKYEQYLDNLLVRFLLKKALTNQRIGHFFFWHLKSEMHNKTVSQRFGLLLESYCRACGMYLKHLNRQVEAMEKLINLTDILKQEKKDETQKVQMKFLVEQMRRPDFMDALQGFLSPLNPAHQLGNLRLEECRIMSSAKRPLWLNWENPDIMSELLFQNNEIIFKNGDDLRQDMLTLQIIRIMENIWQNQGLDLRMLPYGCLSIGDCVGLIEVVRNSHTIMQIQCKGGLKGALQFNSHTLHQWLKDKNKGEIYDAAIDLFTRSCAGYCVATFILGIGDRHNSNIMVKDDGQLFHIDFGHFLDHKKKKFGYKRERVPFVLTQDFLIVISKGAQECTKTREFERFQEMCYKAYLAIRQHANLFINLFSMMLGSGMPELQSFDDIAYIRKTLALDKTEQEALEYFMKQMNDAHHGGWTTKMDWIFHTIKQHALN
Sequence (P27986 whole entry partner): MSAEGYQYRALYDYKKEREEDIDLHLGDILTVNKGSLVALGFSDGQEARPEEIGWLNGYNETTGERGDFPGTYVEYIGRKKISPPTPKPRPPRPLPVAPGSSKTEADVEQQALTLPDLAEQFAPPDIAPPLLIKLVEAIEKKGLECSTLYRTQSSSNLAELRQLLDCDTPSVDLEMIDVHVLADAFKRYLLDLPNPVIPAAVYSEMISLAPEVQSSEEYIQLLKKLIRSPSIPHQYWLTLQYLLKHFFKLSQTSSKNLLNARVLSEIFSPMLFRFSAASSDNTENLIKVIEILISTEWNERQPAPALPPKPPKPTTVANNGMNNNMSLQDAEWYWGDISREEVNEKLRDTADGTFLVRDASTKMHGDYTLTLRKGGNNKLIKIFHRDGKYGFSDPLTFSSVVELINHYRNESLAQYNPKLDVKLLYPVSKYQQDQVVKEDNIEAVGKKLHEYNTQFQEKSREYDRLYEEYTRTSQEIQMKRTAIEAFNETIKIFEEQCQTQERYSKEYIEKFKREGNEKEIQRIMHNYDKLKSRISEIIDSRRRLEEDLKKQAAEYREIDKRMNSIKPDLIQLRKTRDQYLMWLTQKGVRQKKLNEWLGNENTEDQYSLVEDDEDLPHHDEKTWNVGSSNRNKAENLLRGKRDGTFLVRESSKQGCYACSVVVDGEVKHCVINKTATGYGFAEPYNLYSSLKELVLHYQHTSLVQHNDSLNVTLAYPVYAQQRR
MEASURED ENDPOINT: IC50 (nM)

[1] CC(C)OC(=O)N1CCC(n2ncc3c(N4CCOCC4)nc(-c4ccc(NC(=O)Nc5cccnc5)cc4)nc32)CC1
[2] O=C1Cc2cc(-c3nc(N4CCOCC4)c4cnn(-c5ccccc5)c4n3)ccc2N1 [Compound 433]
Ask: Field: lower recorded IC50 (choose 1 or 2 ) Mark your answer with the label of the selected entry.
Result: 1

[A] CNC(=O)Nc1ccc(-c2nc(N3CCOCC3)c3cnn(C4CCN(C(=O)OCC(C)(C)C)CC4)c3n2)cc1
[B] CCNC(=O)Nc1ccc(-c2nc(N3CCOCC3)c3cnn(C4CCN(C(=O)c5cccnc5)CC4)c3n2)cc1 [Compound 552]
Ask: Endpoint returns the identifier whose IC50 is numerically larger, either A or B . Mark your answer with the label of the selected entry.
Result: B
(B: 434 nM, A: 87 nM)

----------
tested on: breast line MDA468; assay: In vitro cell culture growth assay (MTS), MDA468; assay type: cell-based, human; settings: Homo sapiens, 72 h, MDA468 cells, three days after drug treatment
Some molecules, each annotated with its measured IC50.
Please state the figure in nM; there is no need to write the unit.

Below, 3 molecules whose answers are already recorded.
CN(C)c1ccc(CC(=O)Nc2ccc(-c3nc(N4CCOCC4)c4cnn(C5CCCCO5)c4n3)cc2)cc1 (centres unmarked) [Compound 276] : 60000
CS(=O)(=O)Nc1cccc(-c2nc(N3CCOCC3)c3cnn(C4CCN(Cc5ccccc5)CC4)c3n2)c1 [Compound 84] : 12000
Oc1cccc(-c2nc(N3CCOCC3)c3cnn(C4CCN(CC5CCCCC5)CC4)c3n2)c1 [Compound 17] : 2000

Ask: Record lookup: for breast line MDA468, what IC50 belongs to CN(C)C1CCC(n2ncc3c(N4CCOCC4)nc(-c4ccc5[nH]ccc5c4)nc32)CC1 (centres unmarked) [Compound 150] ?
Result: 2100

Ask: Record lookup: for breast line MDA468, what IC50 belongs to CNC(=S)Nc1ccc(-c2nc(N3CCOCC3)c3cnn(C4CCN(Cc5cccnc5)CC4)c3n2)cc1 [Compound 622] ?
Result: 500

----------
Some molecules, each annotated with its measured pIC50.
system: breast line MDA468; experiment: In vitro cell culture growth assay (MTS), MDA468; format: cell-based, human; conditions: Homo sapiens, 72 h, MDA468 cells, three days after drug treatment
Reminder that pIC50 is minus the log10 of a molar concentration.

CCOC(=O)N1CCC(n2ncc3c(N4CCOC[C@H]4C)nc(-c4ccc(NC(=O)Nc5ccncc5)cc4)nc32)CC1 [Compound 893] : 6.74
CCNC(=O)Nc1ccc(-c2nc(N3CCOCC3)c3cnn(C4CCN(C(=O)c5cccnc5)CC4)c3n2)c(F)c1 [Example 462] : 6.05
c1ccc(-n2ncc3c(N4CCOCC4)nc(-c4ccc5[nH]ccc5c4)nc32)cc1 [Compound 110] : 5.26
NC(=O)c1cccc(-c2nc(N3CCOCC3)c3cnn(C4CCN(Cc5ccccc5)CC4)c3n2)c1 [Compound 82] : 4.54
O=C(Nc1ccc(-c2nc(N3CCOCC3)c3cnn(C4CCN(Cc5cccnc5)CC4)c3n2)cc1)Nc1ccsc1 [Compound 620] : 6.89
O=C(c1ncccc1O)N1CCC(n2ncc3c(N4CCOCC4)nc(-c4ccc5[nH]ccc5c4)nc32)CC1 [Example 198] : 5.40
CCNC(=O)Nc1ccc(-c2nc(N3CCOCC3)c3cnn(C4CCN(C(=O)OCC)CC4)c3n2)cc1 [Compound 820] : 6.89

Now for a further molecule.
Ask: // returns reported pIC50 for input c1ccc(-n2ncc3c(N4CCOCC4)nc(-c4ccc5sccc5c4)nc32)cc1 [Compound 105]
Result: 4.22

----------
target: PI3K (Homo sapiens, UniProt P42336); experiment: Fluorescence polarization assay for PI3K; assay type: biochemical; conditions: PI3Kα; read-out: PI3Kα IC50
pIC50: −log10 of the molar value.
MEASURED ENDPOINT: pIC50

O=C(Nc1ccncc1)Nc1ccc(-c2nc(N3CCOCC3)c3cnn(C4CCN(Cc5cccnc5)CC4)c3n2)cc1F [Compound 599] : 7.47
O=C(Nc1ccc(-c2nc(N3CCOCC3)c3cnn(C4CCN(Cc5cccnc5)CC4)c3n2)cc1)Nc1ccccn1 [Example 341] : 7.04
CNC(=O)Nc1ccc(-c2nc(N3CCOCC3)c3cnn(C4CCN(C(=O)c5ccc(OC)cc5)CC4)c3n2)cc1 [Example 363] : 7.26
CNC(=O)Nc1ccc(-c2nc(N3CCOCC3)c3cnn(C4CCN(Cc5cccc(F)c5)CC4)c3n2)cc1 [Compound 672] : 7.52
CS(=O)(=O)Nc1cccc(-c2nc(N3CCOCC3)c3cnn(-c4ccccc4)c3n2)c1 : 6.95

[A] Oc1cccc(-c2nc(N3CCOCC3)c3cnn(CCN4CCNCC4)c3n2)c1
[B] O=C(NCCF)Nc1ccc(-c2nc(N3CCOCC3)c3cnn(CC(F)(F)F)c3n2)cc1
Ask: Field: lower recorded pIC50 (choose A or B ) Mark your answer with the label of the selected entry.
Result: B
(B: 6.50, A: 7.35)

[P] CONC(=O)Nc1ccc(-c2nc(N3CCOCC3)c3cnn(-c4ccccc4)c3n2)cc1 [Compound 295]
[Q] c1cc2cc(-c3nc(N4CCOCC4)c4cnn(CCN5CCCCC5)c4n3)ccc2[nH]1
Ask: Endpoint returns the identifier whose pIC50 is numerically larger, either P or Q . Mark your answer with the label of the selected entry.
Result: P

[a] CC(C)(C)OC(=O)N1CCC[C@H](n2ncc3c(N4CCOCC4)nc(-c4ccc(N)cc4)nc32)C1
[b] COC(=O)Nc1ccc(-c2nc(N3CCOCC3)c3cnn(C4CCN(C(=O)C(C)C)CC4)c3n2)cc1
[c] Oc1cccc(-c2nc(N3CCOCC3)c3cnn(C4CCN(CC5CC5)CC4)c3n2)c1
Ask: Rank entries according to their pIC50, from the largest number down. Write out the labels following the order that was asked for.
Result: c, a, b

[1] CNC(=O)Nc1ccc(-c2nc(N3CCOCC3)c3cnn(C4CCN(Cc5ccc(Cl)cc5)CC4)c3n2)cc1 [Example 394]
[2] O=C(Nc1ccccc1)Nc1ccc(-c2nc(N3CCOCC3)c3cnn(C4CCN(Cc5cccnc5)CC4)c3n2)cc1 [Example 339]
[3] c1ccc(CN2CCC(n3ncc4c(N5CCOCC5)nc(-c5ccc(NCCN6CCOCC6)nc5)nc43)CC2)cc1
[4] CCNC(=S)N1CCC(n2ncc3c(N4CCOCC4)nc(-c4ccc(NC(=O)OC)cc4)nc32)CC1
Ask: Rank entries according to their pIC50, from the largest number down. Write out the labels following the order that was asked for.
Result: 2, 1, 4, 3
(2: 7.96, 1: 7.74, 4: 6.16, 3: 5.08)

----------
biological target: UniProt P42336; assay: Fluorescence polarization assay for PI3K; type: biochemical; conditions: PI3Kα; read-out: PI3Kα IC50
MEASURED ENDPOINT: IC50 (nM)

CNC(=O)Nc1ccc(-c2nc(N3CCOCC3)c3cnn(C4CCN(C(C)=O)CC4)c3n2)cc1 [Example 472] : 225
CNC(=O)Nc1ccc(-c2nc(N3CCOCC3)c3cnn(C4CCN(C(=O)OCCN(C)C)CC4)c3n2)cc1 [Compound 803] : 173
COC(=O)N1CCC(n2ncc3c(N4CCOCC4)nc(-c4ccc(NC(=O)Nc5ccc(F)cc5)cc4)nc32)CC1 [Compound 859] : 28

[P] CNC(=O)Nc1ccc(-c2nc(N3CCOCC3)c3cnn(C4CCN(CCCCO)CC4)c3n2)cc1 [Compound 743]
[Q] CNC(=O)Nc1ccc(-c2nc(N3CCOCC3)c3cnn(C4CCN(Cc5ccncc5)CC4)c3n2)cc1 [Compound 670]
Ask: Field: lower recorded IC50 (choose P or Q ) Mark your answer with the label of the selected entry.
Result: Q
(Q: 112 nM, P: 212 nM)

[I] CNC(=O)Nc1ccc(-c2nc(N3CCOCC3)c3cnn(C4CCN(C(=O)c5ccc(F)cc5)CC4)c3n2)cc1 [Compound 607]
[II] O=C(Nc1ccncc1)Nc1ccc(-c2nc(N3CCOCC3)c3cnn(C4CCN(Cc5cccnc5)CC4)c3n2)cc1 [Example 340]
Ask: Endpoint returns the identifier whose IC50 is numerically larger, either I or II . Mark your answer with the label of the selected entry.
Result: I

----------
biological target: PI3K (Homo sapiens, UniProt P42336); assay: Fluorescence polarization assay for PI3K; assay type: biochemical; conditions: PI3Kα; read-out: PI3Kα IC50;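 note: PI3K kinase reaction on PIP2 with ATP, 30-60 min, product sensed by GST-GRP with red probe in fluorescence polarization (mP), controls without enzyme and at zero time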
MEASURED ENDPOINT: IC50 (nM)

[A] FC(F)(F)CN1CCC(n2ncc3c(N4CCOCC4)nc(-c4ccc5[nH]ccc5c4)nc32)CC1 [Compound 715]
[B] O=C(Nc1ccc(-c2nc(N3CCOCC3)c3cn[nH]c3n2)cc1)c1cccnc1 [Compound 524]
[C] CN(C)C1CCC(n2ncc3c(N4CCOCC4)nc(-c4ccc5[nH]ccc5c4)nc32)CC1 (stereo not drawn) [Compound 150]
[D] CNC(=O)Nc1ccc(-c2nc(N3CCOCC3)c3cnn(C4CCN(C)CC4)c3n2)cc1 [Compound 401]
Ask: With the 4 compounds above, produce a list ordered by ascending IC50. Write out the labels following the order that was asked for.
Result: D, B, C, A
(D: 211 nM, B: 1170 nM, C: 1950 nM, A: 2880 nM)

[a] CCOC(=O)N1CCC(n2ncc3c(N4CCOCC4)nc(-c4ccc(NC(=O)Nc5ccncc5)cc4)nc32)CC1 [Compound 817]
[b] CC(C)N1CCC(n2ncc3c(N4CCOCC4)nc(-c4ccc5[nH]ccc5c4)nc32)CC1 [Compound 488]
[c] CCNC(=O)Nc1ccc(-c2nc(N3CCOCC3)c3cnn(C4CCN(C(=O)c5cccnc5)CC4)c3n2)cc1 [Example 307]
[d] Fc1cc(F)cc(-c2nc(N3CCOCC3)c3cnn(C4CCN(Cc5ccccc5)CC4)c3n2)c1 [Compound 88]
Ask: Rank entries according to their IC50, from the largest number down. Write out the labels following the order that was asked for.
Result: b, d, c, a

[a] Oc1cncc(-c2nc(N3CCOCC3)c3cnn(C4CCN(Cc5ccccc5)CC4)c3n2)c1 [Compound 250]
[b] Nc1ccc(-c2nc(N3CCOCC3)c3cnn(C4CCN(C(=O)c5cccnc5)CC4)c3n2)nc1 [Compound 679]
[c] COc1cccc(C(=O)Nc2ccc(-c3nc(N4CCOCC4)c4cnn(C5CCCCO5)c4n3)cc2)c1 (stereo not drawn) [Compound 273]
Ask: Arrange items by their IC50 values in increasing order. Write out the labels following the order that was asked for.
Result: a, b, c

Data provenance is patent US20080234262A1.
